Test: PAMPA-GI permeability
Assay type: in vitro ADME
Cond: at each value of pH (5.0, 6.5, 7.4), after 18 h of incubation, read-out: PAMPA-GI permeability P e (bound)
Measured Quantity: Papp at 18 h

Request: // lookup Papp at 18 h for C=CCSC[C@H](NC(C)=O)C(=O)Oc1cc(C(C)C)ccc1C
Response: > 1 ×10⁻⁶ cm/s
